# assay-explanation: protein stability index of a GFP-peptide fusion (yeast GPS) (PSI 1-4); higher = more stable; sorted into four equal gates, so the index is relative within each strain
# condition-notes: doa10∆
Record form. Attribute: protein stability index. Fill in for each entry.
API note: the answer field is a bare number with no unit suffix.

Asked: Quick one: give measured protein stability index for QKRNAHGYFLQDKEKID [ITC1]
Given back: 3.32

Asked: Quick one: give measured protein stability index for HTLDIINVLTDQNPIQV [RPS5]
Given back: 1.88

Asked: Quick one: give measured protein stability index for REQYETQVALNESEKDQ [UBP6]
Given back: 3.1

Asked: Quick one: give measured protein stability index for YGQRAVLKFAAHTGATP [RPS0B]
Given back: 2.27

Asked: Quick one: give measured protein stability index for TSSIFQESFNSVQNLDQ [NUT1]
Given back: 3.16

Asked: Quick one: give measured protein stability index for LTNLLSQLNIQLSQDEH [SRP72]
Given back: 3.01

Asked: Quick one: give measured protein stability index for LMRQGVLGIKVKIMRDP [RPS3]
Given back: 2.4

Asked: Quick one: give measured protein stability index for VDDSMELCGQIRSERFK [ITC1]
Given back: 2.84

Asked: Quick one: give measured protein stability index for DDPLENMFGDYSNEPFN [SNF6]
Given back: 2.98

Asked: Quick one: give measured protein stability index for SALTSPTDSSKILQKRS [SIR3]
Given back: 2.99

Asked: Quick one: give measured protein stability index for KSAENIIKMTIPYAAKL [RET1]
Given back: 2.27

Asked: Quick one: give measured protein stability index for GRRKTWKRQNTLSLWRY [RPL15A]
Given back: 3.21

Asked: Quick one: give measured protein stability index for HVIQIPLNKPLLTEELA [TAF14]
Given back: 2.2

Asked: Quick one: give measured protein stability index for ENGQRDLDRIAAQTLEE [RPS19A]
Given back: 3.2

Asked: Quick one: give measured protein stability index for AQFAGRASIEYYVGQVM [DIS3]
Given back: 3.46
